# MEASUREMENT DESCRIPTION: Solubility screen of methylone hydrochloride in solvents
# Type: physicochemical
# EXPERIMENTAL CONTEXT: acetonitrile, organic solvent or mixture, thermodynamic from solid; ACN, room temperature, visual
Counter-ions that a name gives are not always drawn.
MEASUREMENT LABEL: solubility

CNC(C)C(=O)c1ccc2c(c1)OCO2 (racemic) [(rac)-Methylone Hydrochloride]    < 1000 µg/mL

###

Recorded half-life at 1 μM, one value per entry.
# MEASUREMENT DESCRIPTION: Metabolic stability in human liver microsomes
# Type: in vitro ADME
# EXPERIMENTAL CONTEXT: pooled liver microsomes, pH 7.4; human liver microsomes 0.5 mg/mL, 1 μM compound, NADPH, 0-45 min
Structures can show the parent of a compound that is named as a salt.
MEASUREMENT LABEL: half-life at 1 μM (h)

Cl.[2H]C([2H])([2H])NC(C)C(=O)c1ccc2c(c1)OCO2 (racemic) [(rac)-Methylone-d3 hydrochloride]    2.88
Cl.[2H]C([2H])([2H])N[C@@H](C)C(=O)c1ccc2c(c1)OC([2H])([2H])O2 [(S)-Methylone-d5 hydrochloride]    2.55
CN[C@H](C)C(=O)c1ccc2c(c1)OCO2 [(R)-Methylone Hydrochloride]    3.38
Cl.[2H]C([2H])([2H])NC(C)C(=O)c1ccc2c(c1)OC([2H])([2H])O2 (racemic) [(rac)-Methylone-d5 hydrochloride]    3.05
Cl.[2H]C([2H])([2H])N[C@@H](C)C(=O)c1ccc2c(c1)OCO2 [(S)-Methylone-d3 hydrochloride]    2.4
Cl.[2H]C1([2H])Oc2ccc(C(=O)C(C)NC)cc2O1 (racemic) [(rac)-Methylone-d2 hydrochloride]    2.45
Cl.[2H]C([2H])([2H])N[C@H](C)C(=O)c1ccc2c(c1)OC([2H])([2H])O2 [(R)-Methylone-d5 hydrochloride]    3.68
Cl.[2H]C([2H])([2H])N[C@H](C)C(=O)c1ccc2c(c1)OCO2 [(R)-Methylone-d3 hydrochloride]    3.57
CNC(C)C(=O)c1ccc2c(c1)OCO2 (racemic) [(rac)-Methylone Hydrochloride]    2.62
CN[C@@H](C)C(=O)c1ccc2c(c1)OCO2 [(S)-Methylone Hydrochloride]    2.28
Cl.[2H]C1([2H])Oc2ccc(C(=O)[C@@H](C)NC)cc2O1 [(R)-Methylone-d2 hydrochloride]    3.3
Cl.[2H]C1([2H])Oc2ccc(C(=O)[C@H](C)NC)cc2O1 [(S)-Methylone-d2 hydrochloride]    2.45

###

# MEASUREMENT DESCRIPTION: Metabolic stability in human liver microsomes
# Assay type: in vitro ADME
# EXPERIMENTAL CONTEXT: pooled liver microsomes, pH 7.4; human liver microsomes 0.5 mg/mL, 1 μM compound, NADPH, 0-45 min
Structures can show the parent of a compound that is named as a salt.
Recorded microsomal CLint at 1 μM, one value per entry.
MEASUREMENT LABEL: microsomal CLint at 1 μM

Cl.[2H]C1([2H])Oc2ccc(C(=O)[C@@H](C)NC)cc2O1 [(R)-Methylone-d2 hydrochloride]    7 µL/min/mg
CN[C@H](C)C(=O)c1ccc2c(c1)OCO2 [(R)-Methylone Hydrochloride]    6.82 µL/min/mg
Cl.[2H]C([2H])([2H])N[C@@H](C)C(=O)c1ccc2c(c1)OC([2H])([2H])O2 [(S)-Methylone-d5 hydrochloride]    9.07 µL/min/mg
CNC(C)C(=O)c1ccc2c(c1)OCO2 (racemic) [(rac)-Methylone Hydrochloride]    8.84 µL/min/mg

Hey, just so you know, these numbers are from patent US20240294488A1.
